system: UniProt:P50172
Sequence (P50172 whole entry): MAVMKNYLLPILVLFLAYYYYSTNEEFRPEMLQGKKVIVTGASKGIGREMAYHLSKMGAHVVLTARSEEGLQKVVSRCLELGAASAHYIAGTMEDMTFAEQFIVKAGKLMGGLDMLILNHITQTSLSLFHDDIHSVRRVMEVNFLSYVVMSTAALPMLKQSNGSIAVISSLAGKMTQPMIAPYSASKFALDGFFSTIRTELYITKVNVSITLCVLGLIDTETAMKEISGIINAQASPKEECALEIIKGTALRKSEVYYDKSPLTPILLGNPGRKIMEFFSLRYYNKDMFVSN
assayComment: scintillation proximity assay (SPA), microsomes of HEK-293 cells transfected with mouse 11β-HSD1
measurementContext: read-out: Inhibitory ratio m-HSD1, at 1.0 μM; averages of three determinations
Quick rule: inhibition at 1 µM of at least 90% means met, below that means not met.

Would you please look over these solved cases?
{"compound": "Cc1c(CN(C)C)oc2c1C(=O)C(=O)c1c-2ccc2c1CCCC2(C)C [Compound 29a]", "system": "UniProt:P50172", "category": "met"}
{"compound": "Cc1c(-c2ccncc2)oc2c1C(=O)C(=O)c1c-2ccc2c1CCCC2(C)C [Compound 27c]", "system": "UniProt:P50172", "category": "not met"}

Could you now consider this next compound?
Check if inhibition at 1 µM >= 90% (inclusive). Item: Cc1coc2c1C(=O)C(=O)c1c-2ccc2c1CCC(=O)C2(C)C
not met
